// values below are reported pIC50
- system under test: CDK6-CYCLIN D3 (Homo sapiens)
- Sequence (Q00534 whole entry): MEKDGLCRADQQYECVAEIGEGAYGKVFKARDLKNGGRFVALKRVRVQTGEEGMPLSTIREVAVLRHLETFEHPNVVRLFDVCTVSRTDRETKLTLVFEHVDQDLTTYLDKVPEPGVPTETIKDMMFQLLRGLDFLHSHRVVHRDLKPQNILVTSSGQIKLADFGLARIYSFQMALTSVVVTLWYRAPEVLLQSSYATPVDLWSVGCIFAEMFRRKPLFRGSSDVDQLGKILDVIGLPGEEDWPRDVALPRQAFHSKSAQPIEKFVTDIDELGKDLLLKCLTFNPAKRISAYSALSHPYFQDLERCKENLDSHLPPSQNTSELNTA
- Sequence (P30281 whole entry partner): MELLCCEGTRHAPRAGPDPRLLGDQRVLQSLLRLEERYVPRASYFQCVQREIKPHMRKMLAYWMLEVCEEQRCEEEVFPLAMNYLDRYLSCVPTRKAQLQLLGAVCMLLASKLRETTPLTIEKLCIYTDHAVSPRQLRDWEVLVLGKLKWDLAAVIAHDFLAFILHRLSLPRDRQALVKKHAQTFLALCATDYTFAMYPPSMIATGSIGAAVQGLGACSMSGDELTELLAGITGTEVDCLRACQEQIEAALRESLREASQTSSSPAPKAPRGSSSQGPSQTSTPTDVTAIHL
- test method notes: CDK protein kinase inhibition by ADP-Glo assay, CDK6-CYCLIN D3
- Format: biochemical
- measurement conditions: ADP-Glo, 1000 μM ATP; Table 7; read-out: CDK6-CYCLIND3, IC50
pIC50: −log10 of the molar value.

>  <input smiles>
O=C1NCCCCOc2cc(cc(C(F)F)n2)Nc2cc([nH]n2)[C@H]2CC[C@H](C2)O1

>  <result>
< 6.30

$$$$
>  <input smiles>
O=C1NCCCCCc2cc(ccn2)Nc2cc([nH]n2)[C@H]2CC[C@H](C2)O1

>  <result>
7.00 to 7.30

$$$$
>  <input smiles>
O=C1NCCCCOc2cncc(c2)Nc2cc(n[nH]2)[C@H]2CC[C@H](C2)O1

>  <result>
7.30 to 8.00

$$$$
>  <input smiles>
O=C1NCCCCOc2cccc(c2)Nc2cc([nH]n2)[C@H]2CC[C@H](C2)O1

>  <result>
6.30 to 7.00

$$$$
>  <input smiles>
C[C@H]1CCCOc2cc(ccn2)Nc2cc([nH]n2)[C@H]2CC[C@H](C2)OC(=O)N1

>  <result>
< 6.30

$$$$
>  <input smiles>
O=C1NCCCCCc2cc(cc(C(F)F)n2)Nc2cc([nH]n2)[C@H]2CC[C@H](C2)O1

>  <result>
7.00 to 7.30

$$$$

Prompt: Could you share which pIC50 value was measured for C[C@@H]1CCCOc2cc(ccn2)Nc2cc([nH]n2)[C@H]2CC[C@H](C2)OC(=O)N1 ?
Completion: 6.30 to 7.00

Prompt: For the compound shown here, CC1(C)CCCOc2cc(ccn2)Nc2cc([nH]n2)[C@H]2CC[C@H](C2)OC(=O)N1 , give the reported pIC50.
Completion: 7.00 to 7.30

* * *

- system under test: CDK6-CYCLIN D3 (Homo sapiens)
- test method notes: CDK protein kinase inhibition by ADP-Glo assay, CDK6-CYCLIN D3
- Assay type: biochemical
- measurement conditions: CDK2 versus CDK6; Table 8
readout type: CDK2 Fold Sensitivity, CDK6

>  <compound>
O=C1NCCCCCc2cc(cc(C(F)F)n2)Nc2cc([nH]n2)[C@H]2CC[C@H](C2)O1 [Compound 17]

>  <result>
B (B, >100 and ≤500)

$$$$
>  <compound>
O=C1NCCCCOc2cccc(c2)Nc2cc([nH]n2)[C@H]2CC[C@H](C2)O1 [Compound 105]

>  <result>
C (C, >50 and ≤100)

$$$$
>  <compound>
O=C1NCCCCOc2cc(cc(C(F)F)n2)Nc2cc([nH]n2)[C@H]2CC[C@H](C2)O1 [Compound 16]

>  <result>
B (B, >100 and ≤500)

$$$$
>  <compound>
C[C@H]1CCCOc2cc(ccn2)Nc2cc([nH]n2)[C@H]2CC[C@H](C2)OC(=O)N1 [Compound 9]

>  <result>
B (B, >100 and ≤500)

$$$$

Turning now to a further record.
Prompt: Quick one: CDK2 Fold Sensitivity, CDK6 of C[C@@H]1CCCOc2cc(ccn2)Nc2cc([nH]n2)[C@H]2CC[C@H](C2)OC(=O)N1 [Compound 10] ?
Completion: C (C, >50 and ≤100)

* * *

- Tested on: Phospho-Rb (Ser807/811) in OVCAR3 cells
- test method notes: Phospho-Rb expression inhibition in OVCAR3 cells quantified by In Cell Western
- Assay type: cell-based
- measurement conditions: Homo sapiens, OVCAR-3, 24 hours, read-out: OVCAR-3 pRb IC50
readout type: IC50

Examples from the recorded data:
>  <input smiles>
C[C@H]1CCC2(CC2)NC(=O)O[C@@H]2CC[C@@H](C2)c2cc([nH]n2)Nc2ccnc(c2)O1

>  <IC50>
50 to 250 nM

$$$$
>  <input smiles>
O=C1NCCCCCc2cc(ccn2)Nc2cc([nH]n2)[C@H]2CC[C@H](C2)O1

>  <IC50>
10 to 50 nM

$$$$
>  <input smiles>
C[C@@H]1CC[C@H](C)Oc2cncc(c2)Nc2cc(n[nH]2)[C@H]2CC[C@H](C2)OC(=O)N1

>  <IC50>
2 to 10 nM

$$$$
>  <input smiles>
C[C@@H]1CCCNC(=O)O[C@@H]2CC[C@@H](C2)c2cc(n[nH]2)Nc2ccnc(c2)O1

>  <IC50>
10 to 50 nM

$$$$
>  <input smiles>
O=C1NCCCOC2(CC2)c2cc(ccn2)Nc2cc([nH]n2)[C@H]2CC[C@H](C2)O1

>  <IC50>
10 to 50 nM

$$$$
>  <input smiles>
C[C@@H]1CC23CC(C2)(C3)NC(=O)O[C@@H]2CC[C@@H](C2)c2cc(n[nH]2)Nc2cc(nc(C(F)F)c2)O1

>  <IC50>
> 250 nM

$$$$

Next:
Prompt: Reported IC50 for C[C@H]1CCC(C)(C)NC(=O)O[C@@H]2CC[C@@H](C2)c2cc([nH]n2)Nc2ccnc(c2)O1 : what is it?
Completion: ≤ 2 nM
